All figures here come from patent US20260242478A1.

molecular target: T1, PSMA Fab (biotinylated (site not given)); assay: phage ELISA: clonal phage supernatant on biotinylated PSMA Fab captured on neutravidin plate, blocking buffer alone; anti-M13 HRP detection;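 further: crude clonal phage supernatants added to wells preincubated with blocking buffer, incubated briefly, bound phage detected with a horseradish-conjugated anti-M13 antibody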
T1 construct: Biotinylated PSMA Fab captured on neutravidin plates in the phage ELISA; also called Anti-PSMA Fab; 006 PSMA Fab
Where no end group is shown, it is not given here.
Observation Type: Phage binding ELISA signal, Anti-PSMA Fab

Look up Phage binding ELISA signal, Anti-PSMA Fab: VVKWCTPSWMCTGF (peptide, not shown: large carriers, cysteine pairing not given here; also: displayed as fusion to phage pIII, Clonal phage of the Peptide-180 optimisation library, tested as crude supernatant) [Phage-2466]
1.24

Look up Phage binding ELISA signal, Anti-PSMA Fab: PEHWCIPPWMCVVH (peptide, not shown: large carriers, cysteine pairing not given here; also: displayed on phage as fusion to pIII, pIII and linker sequence not given here, Clonal phage of the Peptide-180 optimisation library, tested as crude supernatant) [Phage-2473]
1.24

Look up Phage binding ELISA signal, Anti-PSMA Fab: FEKWCIPAWMCEQV (peptide, not shown: large carriers, cysteine pairing not given here; also: displayed as fusion to phage pIII, Clonal phage of the Peptide-180 optimisation library, tested as crude supernatant) [Phage-2468]
1.24

Look up Phage binding ELISA signal, Anti-PSMA Fab: DFHMCTPRWMCEGM (peptide, not shown: large carriers, cysteine pairing not given here; also: displayed on phage as fusion to pIII, pIII and linker sequence not given here, Clonal phage of the Peptide-180 optimisation library, tested as crude supernatant) [Phage-2474]
1.24

Look up Phage binding ELISA signal, Anti-PSMA Fab: GFPMCKPLWMCENL (peptide, not shown: large carriers, cysteine pairing not given here; also: displayed on phage as fusion to pIII, pIII and linker sequence not given here, Clonal phage of the Peptide-180 optimisation library, tested as crude supernatant) [Phage-2479]
1.23

Look up Phage binding ELISA signal, Anti-PSMA Fab: FDKWCIPPWMCVGP (peptide, not shown: large carriers, cysteine pairing not given here; also: displayed on phage as fusion to pIII, pIII and linker sequence not given here, Clonal phage of the Peptide-180 optimisation library, tested as crude supernatant) [Phage-2472]
1.24

Look up Phage binding ELISA signal, Anti-PSMA Fab: VEKWCIPQWMCSMD (peptide, not shown: large carriers, cysteine pairing not given here; also: displayed on phage as fusion to pIII, pIII and linker sequence not given here, Clonal phage of the Peptide-180 optimisation library, tested as crude supernatant) [Phage-2477]
1.23

Look up Phage binding ELISA signal, Anti-PSMA Fab: EHKWCTPLWMCEGL (peptide, not shown: large carriers, cysteine pairing not given here; also: fused to phage pIII (clonal phage display), Clonal phage of the Peptide-180 optimisation library, tested as crude supernatant) [Phage-2475]
1.23

Look up Phage binding ELISA signal, Anti-PSMA Fab: PFKWCTPAWMCEVH (peptide, not shown: large carriers, cysteine pairing not given here; also: displayed on phage as fusion to pIII, pIII and linker sequence not given here, Clonal phage of the Peptide-180 optimisation library, tested as crude supernatant) [Phage-2480]
1.23

Look up Phage binding ELISA signal, Anti-PSMA Fab: VDKLCRPAWMCVAS (peptide, not shown: large carriers, cysteine pairing not given here; also: displayed as fusion to phage pIII, Clonal phage of the Peptide-180 optimisation library, tested as crude supernatant) [Phage-2470]
1.24

Look up Phage binding ELISA signal, Anti-PSMA Fab: VSKWCTPAWMCSAM (peptide, not shown: large carriers, cysteine pairing not given here; also: displayed as fusion to phage pIII, Clonal phage of the Peptide-180 optimisation library, tested as crude supernatant) [Phage-2469]
1.24

Look up Phage binding ELISA signal, Anti-PSMA Fab: WSNWCIPPWMCAMN (peptide, not shown: large carriers, cysteine pairing not given here; also: displayed on phage as fusion to pIII, pIII and linker sequence not given here, Clonal phage of the Peptide-180 optimisation library, tested as crude supernatant) [Phage-2481]
1.23

Look up Phage binding ELISA signal, Anti-PSMA Fab: EMIRCIPDWMCMSY (peptide, not shown: large carriers, cysteine pairing not given here; also: displayed on phage as fusion to pIII, pIII and linker sequence not given here, Clonal phage of the Peptide-180 optimisation library, tested as crude supernatant) [Phage-2478]
1.23

Look up Phage binding ELISA signal, Anti-PSMA Fab: YHNWCVPQWMCVGL (peptide, not shown: large carriers, cysteine pairing not given here; also: displayed on phage as fusion to pIII, pIII and linker sequence not given here, Clonal phage of the Peptide-180 optimisation library, tested as crude supernatant) [Phage-2476]
1.23

Look up Phage binding ELISA signal, Anti-PSMA Fab: GDKWCIPDWMCVQS (peptide, not shown: large carriers, cysteine pairing not given here; also: displayed as fusion to phage pIII, Clonal phage of the Peptide-180 optimisation library, tested as crude supernatant) [Phage-2467]
1.24

Look up Phage binding ELISA signal, Anti-PSMA Fab: MEKWCIPDWMCLGN (peptide, not shown: large carriers, cysteine pairing not given here; also: displayed as fusion to phage pIII, Clonal phage of the Peptide-180 optimisation library, tested as crude supernatant) [Phage-2471]
1.24
